Reported growth inhibition is given for each of the following molecules.
test: NCI Yeast Anticancer Drug Screen. Data for the mlh1 rad18 strain (AID 175); conditions: S. cerevisiae mlh1 rad18 strain growth inhibition; at 50.0 µM; stronger effect = higher value
This is part of a sample that, as a whole, favours compounds with a hit. Of some 79,000 tested, about 15% had one in any assay.
reported-property: growth inhibition (%)

1) O=c1c(Br)nn(C(c2ccccc2)c2ccccc2)c(=O)n1C(c1ccccc1)c1ccccc1; 13.1
2) O=C1C2C3C=CC(CC3)C2C(=O)C2C3C=CC(C3)C12 (stereo not given); 32.3
3) C[n+]1cc(Br)c2ccccc2c1; 3.45
4) ClC(=Nc1ccccc1)c1cc(Cl)ccn1; 8.15
5) CCOC(=O)c1cc2c(nc1NCc1ccccc1)C(=O)CCCC2; 17.6

----------
Reported growth inhibition is given for each of the following compounds.
assay: NCI Yeast Anticancer Drug Screen. Data for the sgs1 mgt1 strain (AID 161);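 also: 0% = growth of cultures given vehicle only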; settings: S. cerevisiae sgs1 mgt1 strain, at 50.0 µM, stronger effect = higher value
This is part of a sample that, as a whole, favours compounds with a hit. Of some 79,000 tested, about 15% had one in any assay.
reported-property: growth inhibition (%)

1) CC(=O)CC(=O)Nc1cccc(O)c1; -14.9
2) COc1ccc(NC(=O)CC(=O)N2N=C(N(c3ccccc3)c3ccccc3)CC2c2ccccc2)cc1 (stereo not drawn); 12.2
3) C=CCOC(=O)C(CC=C)C(C)=O (stereo not drawn); -17.1
4) O=C1OCCC1=P(c1ccccc1)(c1ccccc1)c1ccccc1; 6.9
5) COC(=O)C1C(C)(C(=O)OC)N=NC1(c1ccccc1)c1ccccc1 (stereo not drawn); -7.55
6) O=C(O)CCN1C(=S)CSC1=S; -38.5
7) CC(=O)OCC1OC(n2cnc([N+](=O)[O-])c2C#N)C(OC(C)=O)C1OC(C)=O (stereo not drawn); 22.3
8) CC1CCc2c(ccc3ccccc23)C1 (stereo not drawn); -3.55
9) O=c1[nH]c2cc3[nH]c4ncccc4c(=O)c3cc2[nH]1; -22.7
10) O=C(O)C1OCOC2C(CO)OCOC12 (stereo not drawn); 17
11) CC(C)(C)C(=O)O[C@H]1C=C[C@@H](O)[C@@H]2[C@H]1[C@@H]1C=C[C@H]2C1; 66.8
12) NC(=O)NC1CC1c1ccccc1 (stereo not drawn); -2.7
13) O=C(Nc1cccc(C(F)(F)F)c1)C(=O)C(C(=O)c1ccc(Cl)c(Cl)c1)C1OC(=O)c2ccccc21 (stereo not drawn); -1.35
14) C=CCOC(=O)C(O)C=C (stereo not drawn); 2.3
15) O=C1c2ccccc2C(=O)N1CCOCCOCCN1C(=O)c2ccccc2C1=O; -17
16) CCC(O)(C#CCl)CC; 10
17) CC(=Nc1ccccc1)Nc1ccccc1; 18.1
18) Cc1nc(N)nc(C)c1N=Nc1cccc(Cl)c1; 9.35

----------
assay: NCI Yeast Anticancer Drug Screen. Data for the rad50 strain (AID 155);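 also: 0% = growth of vehicle-only cultures of the same strain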; settings: S. cerevisiae rad50 strain growth inhibition; at 50.0 µM; stronger effect = higher value
Compounds without any hit were thinned out: in the full panel of roughly 79,000, 15% have a hit. Active and inactive are the calls of the source. No stated cut-off is given here; in the data, active means growth inhibition above about 70%; inactive means the rest.
reported-property: growth inhibition

1) COc1ccc(C2ON(c3ccccn3)CC=C2C)cc1 (configuration not stated); 12.4% (inactive)
2) CCOC(=O)c1ccc(NC(=O)CCCCCCCCC(=O)Nc2ccc(C(=O)OCC)cc2)cc1; 7.5% (inactive)
3) CC(=O)OC(CCN(C)C)c1ccccc1 (configuration not stated); -1.35% (inactive)
4) CCOC(=O)C(c1ccc(C)cc1)C(Cl)(Cl)Cl (configuration not stated); 2.45% (inactive)
5) Cc1ccc(N=C(c2ccccc2)c2ccc([N+](=O)[O-])cc2)cc1; -16.6% (inactive)
6) O=C1C(=O)c2ccccc2C(O)=C1Cc1ccccc1; -15.2% (inactive)
7) CCOC(=O)NCC(Cl)(Cl)Cl; -4.6% (inactive)
8) CC1CC=CCC1(C(=O)O)C(=O)O (configuration not stated); 0.6% (inactive)
9) CCCSc1n[nH]c(=S)c2nc[nH]c12; -2% (inactive)
10) O=S(=O)(OC12CCCCC1CN1CCCCC1C2)c1ccc(Br)cc1 (configuration not stated); 14.6% (inactive)
11) CCS(=O)c1ncc2cnccn12 (configuration not stated); 2.35% (inactive)
12) O=C(CSc1nnc(-c2ccc(N=Cc3ccc(Cl)cc3)cc2)o1)Nc1ccc([N+](=O)[O-])cc1; 14.7% (inactive)
13) Cc1c(Cl)c(N)c(Cl)c(Cl)c1Cl; 15.7% (inactive)
14) CCO/C=N\c1c(C#N)c(CC#N)nn1C; -3.55% (inactive)
15) O=C(O)CNc1ncnc2[nH]ncc12; 7% (inactive)
16) CN(C)c1ccccc1CC(=O)Nc1ccccc1; -12.6% (inactive)
17) CC1CCCC(C)N1 (configuration not stated); 2.5% (inactive)
18) Fc1ccc(NC(=S)Nc2ccccn2)cc1; 4.05% (inactive)
19) CC(=O)CCc1ccc(OC(=O)C(Cl)Cl)cc1; 27% (inactive)
20) Cc1cc([O-])c([I+]c2ccccc2)c(=O)[nH]1; 93.3% (active)
21) CC1=CC2=NC(=O)C(c3ccccc3)C(=O)N2C=C1 (configuration not stated); -1.05% (inactive)
22) CCOC(=O)C1CSC(c2ccccc2)=N1 (configuration not stated); 8.75% (inactive)
23) O=C(O)c1ccc2c(c1)C(=O)c1c(c(O)c3ccccc3c1O)C2=O; 9.25% (inactive)
24) CN(C)CCOc1cccc(OCCN(C)C)n1; 10.7% (inactive)
25) C[N+](C)(C)CC(=O)N/N=C(/Cc1nc2c3c(ccc2[nH]c1=O)C(=O)c1ccccc1C3=O)C(=O)Nc1ccc(Cl)c(Cl)c1; 1.05% (inactive)
26) CCCN=C(NNC(N)=O)C(C)=O; 24.9% (inactive)
27) COc1ccccc1/C=N\NC(=O)c1ccccc1O; 13.2% (inactive)
